Provenance of the data: ChEMBL document CHEMBL3045178

# Test system: Fusarium oxysporum f. sp. vasinfectum
# Measurement Notes: Antifungal activity against Fusarium oxysporum f. sp. vasinfectum at 28 degC after 48 hr microbroth dilution method
# Type: functional
Observable: MIC
The answer consists of two parts: a number and, after it, its unit.

Compound	MIC
C[C@@H]1N[C@H]2N(C1=O)c1ccccc1[C@@]2(O)C[C@@H]1C(=O)N[C@](C)(O)c2nc3ccccc3c(=O)n21 [3-HYDROXYFUMIQUINAZOLINE A]	50 µg/mL

Report MIC for each item below.
1. COc1ccc2c3c([nH]c2c1)[C@H](CC(C)(C)O)N1C(=O)[C@@H]2CCCN2C(=O)[C@@]1(O)[C@H]3O
2. C[C@@H]1NC(=O)[C@@H](Cc2c[nH]c3ccccc23)n2c1nc1ccccc1c2=O [FUMIQUINAZOLINE F]
3. CC(=O)O[C@H]1C[C@@]2(C)[C@@H](CC[C@H]3[C@@]4(C)C=CC(=O)[C@@H](C)[C@@H]4[C@H](OC(C)=O)C(=O)[C@@]32C)/C1=C(\CCC=C(C)C)C(=O)O [HELVOLIC ACID]
4. COc1ccc2c3c4n(c2c1)[C@H](C=C(C)C)OOC(C)(C)C[C@@H]4N1C(=O)[C@@H]2CCCN2C(=O)[C@]1(O)[C@H]3O [VERRUCULOGEN]
5. O=C1CCC(O)c2cccc(O)c21 (configuration not stated) [4,8-DIHYDROXY-1-TETRALONE]
6. COC(=O)Nc1nc2ccccc2[nH]1 [CARBENDAZIM]

Reply text:
50 µg/mL
50 µg/mL
25 µg/mL
25 µg/mL
50 µg/mL
25 µg/mL

* * *

Exercise: state measured LC50 for each of the compounds provided.
# Measurement Notes: Toxicity in Artemia salina (brine shrimp) […]
# Type: organism-based
# Condition Context: in vivo

Worked examples, 2 compounds total:
CC(C)=CCc1cccc2c(C[C@@H]3NC(=O)[C@H](C)NC3=O)c[nH]c12 > 100 µg/mL
O=C1N[C@@H](Cc2ccccc2)C(=O)N2C[C@H](O)C[C@H]12 > 100 µg/mL

Okay, next one:
For O=C1N[C@@H](CO)C(=O)N2CCC[C@@H]12 the compound record lists LC50 as > 100 µg/mL

* * *

# Test system: Fusarium solani
# Measurement Notes: Antifungal activity against Fusarium solani at 28 degC after 48 hr microbroth dilution method
# Type: functional
Observable: MIC (µg/mL)
Give bare numbers, in µg/mL.

Worked examples, 4 molecules total:
C[C@@H]1NC(=O)[C@@H](Cc2c[nH]c3ccccc23)n2c1nc1ccccc1c2=O 50
COc1ccc2c3c([nH]c2c1)[C@H](C=C(C)C)N1C(=O)[C@@H]2CCCN2C(=O)[C@@]1(O)[C@H]3OC 25
COC(=O)Nc1nc2ccccc2[nH]1 25
C[C@@H]1N[C@H]2N(C1=O)c1ccccc1[C@@]2(O)C[C@@H]1C(=O)N[C@@H](C)c2nc3ccccc3c(=O)n21 50

Okay, next one:
For Cc1cc(O)no1 the molecule record lists MIC as 50
